Reference source: ChEMBL document CHEMBL2396531

- assayInfo: Metabolic stability in Sprague-Dawley rat plasma at 40 uM after 9 hrs by HPLC analysis
- Type: ADME, cell-free
- conditionDescription: read-out: Stability
endpointLabel: remaining at 9 h, 40 µM (%)
Express your answer in %, writing the number without its unit.

Q: # lookup: remaining at 9 h, 40 µM of CN(CCO)/[N+]([O-])=N\Oc1cc(N2CCN(CC(=O)O[C@H]3CC[C@]4(C)[C@H]5CC=C6[C@@H]7CC(C)(C)CC[C@]7(C(=O)O[C@@H]7O[C@H](CO)[C@H](O)[C@H](O)[C@H]7O)CC[C@@]6(C)[C@]5(C)CC[C@H]4C3(C)C)CC2)c([N+](=O)[O-])cc1[N+](=O)[O-]
Result: 80

###

- System: HepG2
- assayInfo: Cytotoxicity against human HepG2 cells after 72 hrs by MTT assay
- Type: functional, cell-based
- conditionDescription: HepG2, 72 h
endpointLabel: IC50 (µM)
Express your answer in µM, writing the number without its unit.

Q: # lookup: IC50 of C[C@H](Nc1cc(O/N=[N+](\[O-])N(C)CCO)c([N+](=O)[O-])cc1[N+](=O)[O-])C(=O)O[C@H]1CC[C@]2(C)[C@H]3CC=C4[C@@H]5CC(C)(C)CC[C@]5(C(=O)O[C@@H]5O[C@H](CO)[C@H](O)[C@H](O)[C@H]5O)CC[C@@]4(C)[C@]3(C)CC[C@H]2C1(C)C
Result: 6.91
